Tested on: Plasmodium falciparum
Assay: Effective concentration for Plasmodium falciparum 3D7
Format: functional, organism-based
Conditions: Plasmodium falciparum
pEC50: −log10 of the molar value.
Quantity kind: pEC50

Lookup: Can you share its pEC50? I mean this compound: "CCN(CC)CCCNc1ccnc2cc(Oc3ccccc3)ccc12"
Found: 7.47

I = CCN(CC)CCCNc1ccnc2ccc(C(F)(F)F)cc12
II = CCN(CC)CCCC(C)Nc1ccnc2ccc(C(F)(F)F)cc12 (stereo not given)
III = CCN(CC)CCCNc1ccnc2cc(Cl)ccc12
IV = CCN(CC)CCCNc1ccnc2cc(Cl)c(C)cc12
Lookup: Give the ascending ranking of the items by reported pEC50. Give me the labels in the order the question wants.
Found: I, II, IV, III
(I: 7.05, II: 7.29, IV: 8.05, III: 8.70)
